target: human TRPA1 (Homo sapiens); construct: expressed in transfected cells; host or cells: CHO cells; test: FLIPR Tetra calcium influx assay, CHO cells expressing TRPA1, cinnamaldehyde agonist (hTRPA1 CHO Ca2+ AUC EVO); assay type: cell-based; conditions: calculated from hTRPA1 IC50 and hPPB; read-out: Corrected IC50 (hTRPA1 values corrected for hPPB)
Sequence (O75762 whole entry): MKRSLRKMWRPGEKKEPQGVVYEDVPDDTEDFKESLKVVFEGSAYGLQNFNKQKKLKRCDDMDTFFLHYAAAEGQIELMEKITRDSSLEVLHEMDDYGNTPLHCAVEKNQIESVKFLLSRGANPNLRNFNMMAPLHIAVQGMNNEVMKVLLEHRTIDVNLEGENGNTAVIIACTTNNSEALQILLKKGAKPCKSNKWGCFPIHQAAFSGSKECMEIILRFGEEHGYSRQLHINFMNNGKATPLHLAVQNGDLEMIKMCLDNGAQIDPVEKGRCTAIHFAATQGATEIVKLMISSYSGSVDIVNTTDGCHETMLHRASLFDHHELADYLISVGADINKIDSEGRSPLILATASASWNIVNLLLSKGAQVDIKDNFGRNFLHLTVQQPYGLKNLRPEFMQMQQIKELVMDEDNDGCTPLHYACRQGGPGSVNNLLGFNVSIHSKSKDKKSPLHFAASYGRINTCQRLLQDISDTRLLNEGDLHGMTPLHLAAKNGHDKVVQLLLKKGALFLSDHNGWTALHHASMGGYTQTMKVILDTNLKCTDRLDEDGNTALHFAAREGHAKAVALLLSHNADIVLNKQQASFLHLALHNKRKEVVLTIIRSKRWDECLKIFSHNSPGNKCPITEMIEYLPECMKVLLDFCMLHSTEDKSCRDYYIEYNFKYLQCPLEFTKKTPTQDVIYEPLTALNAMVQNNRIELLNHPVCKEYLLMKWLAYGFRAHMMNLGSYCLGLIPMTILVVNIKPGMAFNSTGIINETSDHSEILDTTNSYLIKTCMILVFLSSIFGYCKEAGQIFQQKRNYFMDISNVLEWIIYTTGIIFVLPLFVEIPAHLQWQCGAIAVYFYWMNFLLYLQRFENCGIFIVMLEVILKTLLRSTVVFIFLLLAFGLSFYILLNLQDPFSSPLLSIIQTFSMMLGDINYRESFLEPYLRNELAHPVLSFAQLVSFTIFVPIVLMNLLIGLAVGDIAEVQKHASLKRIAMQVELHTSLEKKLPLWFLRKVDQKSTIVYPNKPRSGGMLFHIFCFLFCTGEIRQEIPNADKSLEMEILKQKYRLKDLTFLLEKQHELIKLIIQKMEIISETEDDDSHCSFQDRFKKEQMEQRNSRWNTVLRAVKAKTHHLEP
pIC50: −log10 of the molar value.
Quantity measured: pIC50

(A) C[C@H]1[C@H](F)C[C@@H](C(=O)NCc2cc(-c3cnc(C(F)(F)F)nc3)ncc2C(F)(F)F)N1S(=O)(=O)c1ccc(F)cn1 (single isomer, unassigned) [Pyridyl Sulfonamide 1]
(B) C[C@H]1[C@H](F)C[C@@H](C(=O)NCc2cc(-c3cnc(C(F)(F)F)nc3)ncc2F)N1S(=O)(=O)c1ccc(F)cn1 (single isomer, unassigned) [Pyridyl Sulfonamide 2]
(C) C[C@H]1[C@H](F)C[C@@H](C(=O)NCc2cc(-c3cnc(C(F)(F)F)nc3)cnc2C(F)F)N1S(=O)(=O)c1ccc(F)cn1 (single isomer, unassigned) [Pyridyl Sulfonamide 3]
Ask: Hi! Can you put these in order of pIC50, lowest number first? I'd appreciate it if you listed the labels in the requested order.
Reply: B, C, A
(B: 5.27, C: 5.71, A: 6.79)

Attribution: patent US10695348B2
